Catalogue of myelination readings, one per entry.
# System: E18 rat cortical neuron-glia co-culture
# protocol text: myelination (MBP fiber length per Olig2+ nucleus), % of 1 µM DAPT response (DMSO = 0) (% of DAPT); higher = more myelination, active = 50 or more
# test conditions: 5 µM; treatment time: 8 days (DIV5-DIV13)
I only need the number, thanks.

Worked examples follow.
> print(dat)
                                   compound                    target.or.test.system       metric  measurement
1  C[N+]1(CCC(C(N)=O)(c2ccccc2)c2ccccc2)CCCCC1 [Fenpiverinium]  E18 rat cortical neuron-glia co-culture  myelination          191
2       O=C(O)C(Cl)Cl [Dichloroacetic Acid]  E18 rat cortical neuron-glia co-culture  myelination        -7.43
3  CCCCC/C=C\C/C=C\C/C=C\C/C=C\CCCC(=O)Nc1ccc(O)cc1  E18 rat cortical neuron-glia co-culture  myelination        -30.5
4  O=C1Nc2ccc(Cl)cc2C(c2ccccc2Cl)=NC1O (centres undefined) [Lorazepam]  E18 rat cortical neuron-glia co-culture  myelination           15
5  CC(O)(CS(=O)(=O)c1ccc(F)cc1)C(=O)Nc1ccc(C#N)c(C(F)(F)F)c1 (centres undefined) [Bicalutamide]  E18 rat cortical neuron-glia co-culture  myelination        -2.06
6  Oc1cc2c(cc1O)[C@H]1c3ccccc3CN[C@@H]1CC2 (racemic) [Dihydrexidine]  E18 rat cortical neuron-glia co-culture  myelination        -20.9
7        NC(=O)OCCCc1ccccc1 [Phenprobamate]  E18 rat cortical neuron-glia co-culture  myelination        -11.4
8  COc1ccc2[nH]cc(CCN)c2c1 [5-Methoxytryptamine]  E18 rat cortical neuron-glia co-culture  myelination        -8.85

q: GET /values?readout=myelination&item= CCC(COC(=O)c1cc(OC)c(OC)c(OC)c1)(c1ccccc1)N(C)C (centres undefined) [Trimebutine]
a: -64

q: // myelination lookup, key: O=C1CC[C@@]2(O)[C@H]3Cc4ccc(O)c5c4[C@@]2(CCN3CC2CC2)[C@H]1O5 [Naltrexone]
a: 1.8

q: Query (compound): NC1=NC(=O)C(c2ccccc2)O1 (centres undefined) [Pemoline] ; field requested: myelination
a: -11.3

q: For the compound shown here, COc1cccc(C2(O)CCCCC2CN(C)C)c1 (centres undefined) [Tramadol] , give the reported myelination.
a: -7.33

q: # input compound: C[C@]12CCC(=O)C=C1CC[C@@H]1[C@@H]2CC[C@@]2(C)[C@H]1CC[C@]2(C)O [Methyltestosterone] ; wanted: its myelination
a: -17.2

q: Look at this compound and give its reported myelination. CCCC(C)(COC(N)=O)COC(=O)NC(C)C (centres undefined) [Carisoprodol]
a: -11.9
